# TEST_PROTOCOL: yeast display, Sf9 membrane polyspecificity reagent, FACS + sequencing; frameworks hold sequencing errors
PROPERTY: polyreactivity (PSR sort gate)

// worked examples, polyreactivity (PSR sort gate) included
// polyreactivity (PSR sort gate) lookup, key: `QVQLVESGGGLFQAGGSLRLSCAASGIIFAVYDMGWYRQAPGKERELVAAISWSGGSTYYADSVKGRFTISRDNAKNTVYLQMNSLKPEDTAVYYCNRVRYSRLGDYWGQGSQVTVSS`
high polyreactivity

Also `QVQLVESGGGLVQAGGSLRLSCAASGGTFSFYAMGWYRQAPGKEREFVAAITASDGSTYYADSVKGRFTSSRDNAKNTVYLQMNSLKPEDTAVYYCAADAYGYKFNSWGQGTQVTVSS` ?
low polyreactivity

Then `QVQLVETGGGLVQAGGSLRLSCAASRSTIADNAMGWYRQAPGKERELVAAITRSGVRTYYADSVKGRFTISRDNAKNTVYLQMNSLKPEDTAVYYCAKRTYPSRIYDYWGQGTQVTVSS` ?
low polyreactivity

# repeat for `QVQLVESGGGLVQAGGSLRLSCAASGSTLSNNAMGWYRQAPGKERELVAAINDSAGSTYYADSVKGRFTISRDNAKNTVYLQMNSLKPEDTAVYYCAAKNYGRSFYYGYDYWEQGTQVTVSS`
low polyreactivity

How about `QVQLVESGGGLVQAGGSLRLSCAASASTFYGYAMGRFRQAPGKERELVAAISSGGSTYYADSVKGRFTISRDNAKNTVYVQMNSLKPEVTAVYYCAAYSYPKKYGYWGQGTQVTVSL` ?
high polyreactivity

Try this sequence next: `QVQLVESGGGLVQAGGSLRLSCAASGRTFRAYVMGWYRQAPGKERELVAAITGDGGSTYYADSVKGRFTISRDNAKNTVYLQMNSLKPEDTAVYYCAAGYVTVYGYYEYWGQGTQVTVSS`
high polyreactivity

Continuing:
Name the reported polyreactivity (PSR sort gate) value associated with the sequence `QVQLVESGGGLVQAGGSLRLSCAASGSTFLSYVMGWYRQAPGKERELVAAISGITGSTYYADSVKGRFTLSRDNAKNTVYLQMNSLKPQDTAVYYWAKVYGYNRLFYYRYDYWGQGTQVTVSS`
high polyreactivity

Please do the same for `QVQLVESGGGLVQAGGSLRLSCAASGLIFTSYAMGWYRQAPGKERELVAAISYSGGTTFYADSVKGRFTISRDNAKNTVYLQMNSLKPEDTAVYYCAADSLSTTHDTLGYDRDDYWGQGTQVTVSS` as well.
low polyreactivity

----------
# TEST_PROTOCOL: yeast display, Sf9 membrane polyspecificity reagent, FACS + sequencing; frameworks hold sequencing errors
PROPERTY: polyreactivity (PSR sort gate)

Take a look at these entries with their results.
Using the record for `QVQLVESGGGLVQAGGSLRLSCAASGLIFYLYAMGWYRQAPGKERELVAAITSGGGSTYYADSVKGRFTISRDNAKNTVYLQMNSLKPEDTAVYYCAARLVLYITVVYEDDYWGQGTQVTVSS` , report its polyreactivity (PSR sort gate).
low polyreactivity

Okay, and `QVQLVESGGGLVQAGGSLRLSCAASGSTFSRYAMGWYRPAPGKERELVAAISGTDDSTYYADSVKGRFTISRDNAKNTVYLQMNSLKPEDTAVYYCAARLVESRYGFGYEYYYWGQGTQVTVSS` ?
low polyreactivity

Lookup `QVQLVESGGGLVQAGGSLRLSCAASGSIFDFNAMGWYRQAPGKERELVAAITWGGGSTYYADSVKGRFTISRDNAKNTVYLQMNSLKPEDTAVYYCNAAYGRYRYDYWGQGTQVTVSS`
low polyreactivity

// query: `QVQLVESGGGLVQAGGSLGLSCAASGFIFYAYVMGRYRQAPGKERELVAAISRNGGSTYYADSVKGRFTISRDNAKKSVYLQMNSLKPEDTAVYYCAALSYYRYSQEDDYWGQGTQVTVSS`
high polyreactivity

***
Using the record for `QVQHVESGGGLVQAGGSLRLSCAASVIIFLWYAMGRYRQAPGKERELGAAISRSGSSTYYADSVKGRFTISRDNAKNTVYLQMNSLKPEDTAVYYCAAAYYSKRSCRFDYWGQGTQVTVSS` , report its polyreactivity (PSR sort gate).
high polyreactivity

Can you check `QVQLVESGGGLVQAGGSLRLSCAASGRILYSYTMGWYRQAPGKEREFVAAITRSGGGTYYADSVKGRFTISRDNAKNTVYLQMNSLKPEDTAVYYCAYYTYYLAYGYWGQGTQVTVSS` next?
high polyreactivity

Then `QVQLVESGGGLVQAGGSLRLSCAASGSIFGFYAMGWYRQAPGKERELVAAITRSGDSTYADSVKGRFTISRDNAKNTVYLQMNSLKPEDTAVYYCATYWQYRYDYWGQGTQVTVSS` ?
low polyreactivity

Same thing, different sequence: `QVQLVESGGGLVQAGGSLRLSCAASGGSFIANAMGRYRQAPGTEREVVAAITSGGSTNYADSVKGRFTISRDNAKNTVYLQMNSLKPDDTAVYYCNAEQNPSGLYDYRGVEGEMGYWGQGTQVTVSS`
low polyreactivity

What would you report for `QVQLVESGGGLVQAGGSLRLSCAASGLIFVYYAMGWYRQAPGKERELVAAITSRGGSTYYADSVKGRFTISRDNAKNTVYLQMNSLKPEDTAVYYCAAVYRHGAFPRYGYWGQGTQVTVSS` ?
high polyreactivity
